Biological target: T1, His-tagged cynomolgus monkey B7-H3 (cynomolgus monkey)
T1 chain: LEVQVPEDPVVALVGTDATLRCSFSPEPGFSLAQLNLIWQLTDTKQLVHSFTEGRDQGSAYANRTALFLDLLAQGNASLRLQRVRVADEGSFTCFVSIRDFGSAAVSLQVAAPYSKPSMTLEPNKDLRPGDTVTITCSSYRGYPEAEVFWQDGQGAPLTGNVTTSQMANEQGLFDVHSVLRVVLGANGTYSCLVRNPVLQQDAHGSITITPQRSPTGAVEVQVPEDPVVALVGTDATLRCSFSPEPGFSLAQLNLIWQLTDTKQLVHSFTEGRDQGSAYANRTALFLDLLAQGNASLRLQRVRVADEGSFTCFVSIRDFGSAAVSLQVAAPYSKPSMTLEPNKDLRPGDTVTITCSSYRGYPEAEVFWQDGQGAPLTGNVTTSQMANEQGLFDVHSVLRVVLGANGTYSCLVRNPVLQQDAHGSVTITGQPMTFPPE
Experiment: ELISA, coated His-tagged antigen, scFv-Fc 1 ug/ml
Recorded ELISA OD450 @ 1 ug/ml, one value per entry.
For clarity, give the value followed by its unit.

40511p1.1.H10 (scFv, V domains shown, Tested as scFv-Fc (Expi293 supernatant)) VH: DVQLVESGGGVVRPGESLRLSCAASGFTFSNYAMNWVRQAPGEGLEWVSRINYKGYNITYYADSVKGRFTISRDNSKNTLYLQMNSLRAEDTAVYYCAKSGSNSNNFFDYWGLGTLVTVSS VL: EIVLTQSPGNLSLSPGERATLSCRASQSVGSQLGWYQQKPGQAPRLLIYGASTRATGIPDRFSGSGSGTEFALTISSLQSEDFAVYYCQQYYDWPPLTFGGGTKVEIK
2.03 OD450
40511p1.2.A12 (scFv, V domains shown, Tested as scFv-Fc (Expi293 supernatant); also called 40511p1.2.Al2) VH: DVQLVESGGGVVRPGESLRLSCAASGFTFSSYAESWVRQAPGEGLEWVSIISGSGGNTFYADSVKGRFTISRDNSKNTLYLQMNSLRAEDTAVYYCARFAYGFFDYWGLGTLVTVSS VL: EIVLTQSPGTLSVSPGERATLSCRASQTVGSKLAWYQQKPGQPPSLLIYDASTRATGIPDRFSGSGSGTDFTLTISSLQSEDFAVYYCQQYRNWPPLTFGGGTKVEIK
2.34 OD450

Problem: Entry 40511p1.2.A4 (scFv, V domains shown, Tested as scFv-Fc (Expi293 supernatant)) VH: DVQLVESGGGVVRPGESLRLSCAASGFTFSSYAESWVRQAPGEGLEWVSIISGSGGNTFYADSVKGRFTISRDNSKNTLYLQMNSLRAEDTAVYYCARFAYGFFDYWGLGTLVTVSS VL: EIVLTQSPGTLSVSPGERATLSCRASQTVGSKLAWYQQKPGQAPRLLIYDASTRATDIPDRFSGSGSGTDFTLTISSLQSEDFAVYYCQQYRNWPPLTFGGGTKVEIK : reported ELISA OD450 @ 1 ug/ml = ?
Solution: 2.3 OD450

Problem: # lookup: ELISA OD450 @ 1 ug/ml of 40633p1.2.G9 (scFv, V domains shown, Tested as scFv-Fc (Expi293 supernatant)) VH: EVQLLESGGGLLQPGGSLRLSCAASGFSFSSYGMHWVRQAPGKGLEWVAAINSDGSRIYYADSVEGRFTISRDNSKNTLYLQMNSLRAEDTAVYYCTKYYYHYAMDVWGQGTTVTVSS VL: QSVLTQPPSASGTPGQRVTISCSGSRSDIGATTVNWYQQLPGTAPKLLIYQSHLRPSGVPDRFSGSKSGTSASLAISGLQSEDEADYYCASWDASLNTWVFGGGTKLTVL
Solution: 2.41 OD450

Problem: Endpoint output: ELISA OD450 @ 1 ug/ml of 40633p1.2.E1 (scFv, V domains shown, Tested as scFv-Fc (Expi293 supernatant)) VH: EVQLLESGRGLVQPGGSLRLSCAASGFTVSYYGMSWVRQAPGKGLEWVSVIKQDGSEEYYADSVKGRFTISRDNSKNTLYLQMNSLRAEDTAVYYCARHWNDYSNGMNVWGQGTTVTVSS VL: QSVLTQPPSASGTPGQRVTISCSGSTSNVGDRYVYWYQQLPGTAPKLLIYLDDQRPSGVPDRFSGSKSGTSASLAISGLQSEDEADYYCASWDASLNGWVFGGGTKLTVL . Value?
Solution: 1.95 OD450
